Measured pKd by item
molecular target: proBFT-3 (Bacteroides fragilis)
Sequence (O86049 18-397 limits assumed): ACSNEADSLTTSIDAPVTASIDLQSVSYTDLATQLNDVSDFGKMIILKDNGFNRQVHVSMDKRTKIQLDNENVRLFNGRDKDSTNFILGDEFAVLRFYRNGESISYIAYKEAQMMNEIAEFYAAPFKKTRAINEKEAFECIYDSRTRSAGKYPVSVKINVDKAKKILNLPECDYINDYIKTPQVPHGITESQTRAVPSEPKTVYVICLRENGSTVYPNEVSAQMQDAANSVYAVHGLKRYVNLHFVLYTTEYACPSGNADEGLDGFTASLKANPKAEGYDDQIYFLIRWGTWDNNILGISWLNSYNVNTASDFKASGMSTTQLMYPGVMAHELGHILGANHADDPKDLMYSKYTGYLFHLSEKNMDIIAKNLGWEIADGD
pKd: −log10 of the molar value.

[
  {
    "mol.smiles": "COc1ccc([C@@H]2CC(=O)c3c(O)cc(O)cc3O2)cc1O",
    "pKd": 4.66
  },
  {
    "mol.smiles": "C[C@@H]1CCc2cc(F)cc3c(=O)c(C(=O)O)cn1c23",
    "pKd": 4.70
  }
]
